assay: Solubility of compound; format: physicochemical
Experimental endpoint: solubility (µM)
Field format: number, assumed µM, no unit text.

-- ask For CC[C@@H]1[C@H](F)C(=O)N[C@@H]1COc1ncc(C#CCN2CCC3(CC2)CCN(c2ncc(C(=O)N[C@H](C(=O)N4C[C@H](O)C[C@H]4C(=O)NCc4ccc(-c5scnc5C)cc4)C(C)(C)C)cn2)CC3)c2cc(C(N)=O)c(OC)cc12 , what is its reported solubility?
-- reply 5

* * *

target: von Hippel-Lindau disease tumor suppressor/Interleukin-1 receptor-associated kinase 4 (Homo sapiens, UniProt Q9NWZ3+P40337); assay: Protac activity at VHL/IRAK4 in human PBMCs assessed as induction of degradation of IRAK4 at 0.1 to 10 uM incubated for 24 hrs by Western blot analysis
Sequence (P40337 whole entry, looked up): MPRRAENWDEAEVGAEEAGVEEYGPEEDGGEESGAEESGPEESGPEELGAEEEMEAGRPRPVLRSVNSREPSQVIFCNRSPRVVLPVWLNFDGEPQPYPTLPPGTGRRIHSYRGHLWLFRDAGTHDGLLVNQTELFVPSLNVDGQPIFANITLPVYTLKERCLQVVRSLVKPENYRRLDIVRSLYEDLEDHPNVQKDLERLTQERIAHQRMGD
Sequence (Q9NWZ3 whole entry, looked up): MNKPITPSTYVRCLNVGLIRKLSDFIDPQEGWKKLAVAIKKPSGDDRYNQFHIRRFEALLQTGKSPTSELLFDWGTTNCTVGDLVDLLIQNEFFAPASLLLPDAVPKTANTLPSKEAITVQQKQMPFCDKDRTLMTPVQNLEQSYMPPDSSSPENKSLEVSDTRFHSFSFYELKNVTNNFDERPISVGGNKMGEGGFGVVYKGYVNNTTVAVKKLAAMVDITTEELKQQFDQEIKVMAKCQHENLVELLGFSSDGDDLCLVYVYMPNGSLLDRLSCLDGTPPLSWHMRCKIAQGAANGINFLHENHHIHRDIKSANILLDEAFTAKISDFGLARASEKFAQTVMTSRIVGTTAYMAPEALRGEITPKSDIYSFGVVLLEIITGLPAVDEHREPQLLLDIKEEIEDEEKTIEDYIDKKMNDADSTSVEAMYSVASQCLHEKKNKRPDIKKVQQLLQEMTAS
The source made the active and inactive calls. The calls are words filed in the database; no cut-off is given here.
Experimental endpoint: Activity

1) CN[C@@H](C)C(=O)N[C@H](C(=O)N1C[C@@H](NC(=O)CCOCCOCCOCC#Cc2cnc(OC[C@@H]3CCC(=O)N3)c3cc(OC)c(C(N)=O)cc23)C[C@H]1C(=O)N[C@@H]1CCCc2ccccc21)C1CCCCC1 ... inactive
2) COc1cc2c(OC[C@@H]3CCC(=O)N3)ncc(C#CCOCCOCCOCCOc3cccc4c3C(=O)N(C3CCC(=O)NC3=O)C4=O)c2cc1C(N)=O (stereo partly drawn) ... inactive
3) CN[C@@H](C)C(=O)N[C@H](C(=O)N1C[C@@H](NC(=O)CCCCCCCCCCC#Cc2cnc(OC[C@@H]3CCC(=O)N3)c3cc(OC)c(C(N)=O)cc23)C[C@H]1C(=O)N[C@@H]1CCCc2ccccc21)C1CCCCC1 ... inactive
